molecular target: Acetylcholinesterase (Homo sapiens) (UniProt P22303); assay: Acetylcholinesterase (AChE) small molecule antagonists: fluorescence cell-based qHTS assay (AID 1347398); conditions: SH-SY5Y cells; AChE activity; series mostly up to 115 µM; further: nearly all actives have a fitted effect of over 50% in size
Sequence (P22303 whole entry, looked up): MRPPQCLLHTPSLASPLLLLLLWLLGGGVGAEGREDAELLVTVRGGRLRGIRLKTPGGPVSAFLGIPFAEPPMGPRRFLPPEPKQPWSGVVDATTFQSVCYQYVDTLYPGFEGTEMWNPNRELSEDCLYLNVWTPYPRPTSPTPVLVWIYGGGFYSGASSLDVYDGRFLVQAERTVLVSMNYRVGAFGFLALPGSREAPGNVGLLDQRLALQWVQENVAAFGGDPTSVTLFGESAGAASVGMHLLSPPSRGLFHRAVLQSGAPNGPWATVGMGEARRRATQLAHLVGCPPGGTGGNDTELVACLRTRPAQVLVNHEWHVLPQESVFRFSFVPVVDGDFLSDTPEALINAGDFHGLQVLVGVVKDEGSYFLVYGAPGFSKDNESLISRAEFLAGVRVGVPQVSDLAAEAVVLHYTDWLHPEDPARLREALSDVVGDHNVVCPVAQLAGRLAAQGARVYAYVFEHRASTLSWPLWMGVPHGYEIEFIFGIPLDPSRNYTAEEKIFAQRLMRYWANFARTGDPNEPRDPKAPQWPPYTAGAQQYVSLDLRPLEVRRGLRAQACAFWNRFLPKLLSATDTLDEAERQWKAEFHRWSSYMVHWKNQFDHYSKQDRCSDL
Inconclusive results are not listed. The source made the active and inactive calls. The call rests on the fitted dose curve.
I would appreciate it if you answered using one of these outcomes: active, inactive

Please review the following examples before continuing.
COMPOUND	CLASS
O=C(O)c1cccc(Cl)c1	inactive
CC1CN1P(=O)(N1CC1C)N1CC1C (configuration not stated)	inactive
O=C(O)c1ccc2[nH]cc(CCCCN3CC=C(c4ccccc4)CC3)c2c1	inactive
CC1(C(=O)Nc2ccc(O)c(Cl)c2Cl)CCCCC1	inactive
[O]=[Cd]	inactive

Record request — test call for O=C(Oc1ccc(Br)cc1)N1CCN2CCC1CC2
inactive
